Ki data for Prothrombin (Homo sapiens, UniProt P00734) follow.
Output spec: scalar in nM, unitless text.

- Molecule: "COC(=O)c1ccccc1CS(=O)(=O)N[C@H]1CCCCN(CC(=O)N[C@H]2CCCC(C(=N)N)C2O)C1=O (some centres not stated)"
  Unit string: "nM"
  Ki: 0.85

Consider the additional molecule presented here.
Prompt: Which Ki reading was recorded for the molecule N=C(N)C1CCC[C@H](NC(=O)CN2CCC[C@H](NS(=O)(=O)Cc3ccccc3)C2=O)C1O (some centres not stated) ?
Response: 1.01

====

IC50 overview
- Study system: Trypsin II (Bos taurus, UniProt Q29463)
- Sequence (Q29463 whole entry): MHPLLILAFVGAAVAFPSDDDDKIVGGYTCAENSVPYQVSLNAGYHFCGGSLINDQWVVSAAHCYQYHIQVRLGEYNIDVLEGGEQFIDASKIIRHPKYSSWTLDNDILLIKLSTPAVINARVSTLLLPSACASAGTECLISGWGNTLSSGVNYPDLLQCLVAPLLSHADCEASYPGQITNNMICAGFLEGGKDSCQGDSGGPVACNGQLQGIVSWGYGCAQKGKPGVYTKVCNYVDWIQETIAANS
Output spec: scalar in nM, unitless text.

Prompt: Look up IC50: N=C(N)C1CCC[C@H](NC(=O)CN2CCC[C@H](NS(=O)(=O)c3cccc4ccccc34)C2=O)[C@@H]1O (some centres undefined)
Response: 1020

Prompt: Recorded IC50 for N=C(N)C1CCCC(NC(=O)CN2CC[C@H](NS(=O)(=O)Cc3ccccc3)C2=O)C1O (some centres undefined) , please?
Response: 538

Prompt: Which IC50 reading was recorded for the compound CC(C(=O)N[C@H]1CCCC(C(=N)N)C1O)N1CCC[C@H](NS(=O)(=O)Cc2ccccc2)C1=O (some centres undefined) ?
Response: 293
